tested on: SK-MEL-2 melanoma; assay: NCI-60 one-dose screen, 48 h (100 = growth as untreated, 0 = no growth, -100 = all killed); conditions: 10 µM
Compounds without any hit were thinned out: in the full panel of roughly 83,000, 20% have a hit.
measuredAttribute: growth (%)
The figure you give is taken to be in %; do not add the unit.

| inputSmiles | growth, % |
| --- | --- |
| CCOC(=O)c1sc(N/N=C(\C)c2ccc3c(c2)Nc2ccccc2S3)nc1C | 10.7 |
| COc1cccc(-c2ccnc(/N=C(\N)Nc3ccc(S(=O)(=O)Nc4nc(C)cc(C)n4)cc3)n2)c1 | 100 |
| CC(C)(C)Nc1nc2cc(Cl)c(Cl)cc2nc1S(C)(=O)=O | 37.2 |
| O=c1c2ccccc2nc(COc2ccccc2)n1/N=C/c1ccc(F)cc1 | 94.5 |
| COc1ccc(N(C)c2cc(C#N)nc3ccccc23)cc1N | 4.88 |
| COc1ccc2[nH]cc(/C=N/Nc3ccc(Br)cn3)c2c1 | 73.5 |
| COc1ccc(-c2c(N)c(=O)n(C)c3ccccc23)cc1 | 77.4 |
| CCCS(=O)(=O)c1oc(-c2ccc(F)cc2)nc1S(=O)(=O)c1ccc(F)cc1 | 36.7 |
| O=C(CSc1nnc(-c2ccc3nc(-c4ccc(Cl)cc4)[nH]c3c2)o1)Nc1ccc(Br)cc1 | -69.6 |
| Cc1cc(=O)oc2cc(OCCCCOc3ccc(/C=C/C(=O)Nc4cccc(Cl)c4)cc3)ccc12 | 86.9 |

Value of measured growth for the entry "COc1nccnc1NS(=O)(=O)c1ccc(NC2=C(Cl)C(=O)c3nc(C)ccc3C2=O)cc1" : 113

Measured growth, "Cc1cccc(-c2nc(Nc3ccccc3C(=O)O)c3ccccc3n2)c1" : 66

# compound "COc1cnc2c(c1)C(=O)c1c-2n(CCCNC(C)C)c(=O)c2cc(OC)c(OC)cc12" ; its growth = 107
